measured_on: GII.4 Sydney 2012 virus-like particles (VLPs), based on strain AFV08795.1 (human norovirus GII.4 Sydney 2012, UniProt P54635 1-538, The particle is a multimeric assembly of VP1 with a little VP2 inside; one VP1 chain is given.)
protocol_notes: indirect ELISA, VLP coated
assay_endpoint: EC50 (µg/mL)
Your answer should be a plain number; it is taken to be in µg/mL.

binder: NORO-250B (antibody, V domains shown) VH: QVQLVESGGGLVKPGGSLTLSCAASGFTFSDYYMNWIRQAPGKRLEWVSYISGIMSSTNYADSVKGRFTISRDTAKKSVYLQMNSLRAEDTAVYYCARATSQGATSYYFDSWGQGTLVTVSS VL: QSVLTQPPSVSGAPGQRVTISCTGSSSNIGADYDVHWYQQLPGAAPRLLIYADINRPSGVPDRFSGSKSGTSASLAITGLQAEDEADYYCQSYDRSVSGSAVFGGGTKVTVL
test_result: 0.2

Please examine the following record next.
**Q:** Using known records, supply EC50 for NORO-273A (antibody, V domains shown) VH: QVQLVQSGAEVKKPGASVKISCKASGYDFTSFPMHWVRLGPGQRLEWMGWISAANGNTKYSQKFQDRFTITRDTSASIVHMELSSLRSEDTAVYYCARGGYSSGLYRYSNYYYGMTVWGQGTLVTVSS VL: DIVMTQTPLSLSVTPGQPASISCKSSESLLHNDRKTYLFWYLQKPGQPPQLLIFQVSNRFSGVPDRFSGSGSGTDFTLRISRVEAEDVGIYYCLQTTQLPLTFGGGTKVEIK
**A:** 0.2
